System: Hepatitis C virus
Test: Antiviral activity against Hepatitis C virus subtype 1b expressing NS3 D168Y mutant infected in HuH7 cells after 48 hrs by luciferase reporter assay
Format: functional, organism-based, Hepacivirus hominis
Settings: genotype 1b, Huh-7, 48 h
ASSAY READOUT: EC50

- COMPOUND: "CCC[C@H](NC(=O)[C@@H]1[C@H]2CCC[C@H]2CN1C(=O)[C@@H](NC(=O)[C@@H](NC(=O)c1cnccn1)C1CCCCC1)C(C)(C)C)C(=O)C(=O)NC1CC1"
  EC50: "187 nM"
- COMPOUND: "COc1ccc2c(O[C@@H]3C[C@H]4C(=O)N[C@]5(C(=O)O)C[C@H]5/C=C\\CCCCC[C@H](NC(=O)OC5CCCC5)C(=O)N4C3)cc(-c3csc(NC(C)C)n3)nc2c1"
  EC50: "2100 nM"
- COMPOUND: "CC(C)(C)NC(=O)N[C@H](C(=O)N1C[C@H]2[C@@H]([C@H]1C(=O)NC(CC1CCC1)C(=O)C(N)=O)C2(C)C)C(C)(C)C (some centres undefined)"
  EC50: "193 nM"

Here is another compound to look at.
### Prompt Which EC50 value belongs to `COc1ccc2c(O[C@@H]3C[C@H]4C(=O)N[C@]5(C(=O)NS(=O)(=O)C6CC6)C[C@H]5/C=C\CCCCN(C)C(=O)[C@@H]4C3)cc(-c3nc(C(C)C)cs3)nc2c1C` ?
### Response 6240 nM

* * *

Test system: Hepatitis C virus
Assay: Antiviral activity against Hepatitis C virus subtype 1b expressing NS3 Q80K mutant infected in HuH7 cells after 48 hrs by luciferase reporter assay
Format: functional, organism-based, Hepacivirus hominis
Conditions: genotype 1b, Huh-7, 48 h
Each entry below carries its reported EC50.
# number only, unit nM dropped from output

The following molecules have reported results that may help.
- MOLECULE: "CC(C)(C)NC(=O)N[C@H](C(=O)N1C[C@H]2[C@@H]([C@H]1C(=O)NC(CC1CCC1)C(=O)C(N)=O)C2(C)C)C(C)(C)C (some centres undefined) [BOCEPREVIR]"
  STUDY TARGET: "Hepatitis C virus"
  EC50, nM: 94
- MOLECULE: "COc1ccc2c(O[C@@H]3C[C@H]4C(=O)N[C@]5(C(=O)O)C[C@H]5/C=C\\CCCCC[C@H](NC(=O)OC5CCCC5)C(=O)N4C3)cc(-c3csc(NC(C)C)n3)nc2c1 [CILUPREVIR]"
  STUDY TARGET: "Hepatitis C virus"
  EC50, nM: 1
- MOLECULE: "CCC[C@H](NC(=O)[C@@H]1[C@H]2CCC[C@H]2CN1C(=O)[C@@H](NC(=O)[C@@H](NC(=O)c1cnccn1)C1CCCCC1)C(C)(C)C)C(=O)C(=O)NC1CC1 [TELAPREVIR]"
  STUDY TARGET: "Hepatitis C virus"
  EC50, nM: 147

Consider the record given below.
### Prompt So what's the measured EC50 for this one? COc1ccc2c(O[C@@H]3C[C@H]4C(=O)N[C@]5(C(=O)NS(=O)(=O)C6CC6)C[C@H]5/C=C\CCCCN(C)C(=O)[C@@H]4C3)cc(-c3nc(C(C)C)cs3)nc2c1C [SIMEPREVIR]
### Response 62

* * *

Tested on: Hepatitis C virus
Experiment: Antiviral activity against Hepatitis C virus subtype 1b expressing NS3 R155T mutant infected in HuH7 cells after 48 hrs by luciferase reporter assay
Format: functional, organism-based, Hepacivirus hominis
Settings: genotype 1b, Huh-7, 48 h
ASSAY READOUT: EC50

Recorded results for 3 compounds are shown here.
- COMPOUND: "COc1ccc2c(O[C@@H]3C[C@H]4C(=O)N[C@]5(C(=O)NS(=O)(=O)C6CC6)C[C@H]5/C=C\\CCCCN(C)C(=O)[C@@H]4C3)cc(-c3nc(C(C)C)cs3)nc2c1C [SIMEPREVIR]"
  STUDY TARGET: "Hepatitis C virus"
  EC50: "0.314 µM"
- COMPOUND: "CCC[C@H](NC(=O)[C@@H]1[C@H]2CCC[C@H]2CN1C(=O)[C@@H](NC(=O)[C@@H](NC(=O)c1cnccn1)C1CCCCC1)C(C)(C)C)C(=O)C(=O)NC1CC1 [TELAPREVIR]"
  STUDY TARGET: "Hepatitis C virus"
  EC50: "22.7 µM"
- COMPOUND: "COc1ccc2c(O[C@@H]3C[C@H]4C(=O)N[C@]5(C(=O)O)C[C@H]5/C=C\\CCCCC[C@H](NC(=O)OC5CCCC5)C(=O)N4C3)cc(-c3csc(NC(C)C)n3)nc2c1 [CILUPREVIR]"
  STUDY TARGET: "Hepatitis C virus"
  EC50: "0.685 µM"

# input for lookup
### Prompt # get_value(readout='EC50', item= CC(C)(C)NC(=O)N[C@H](C(=O)N1C[C@H]2[C@@H]([C@H]1C(=O)NC(CC1CCC1)C(=O)C(N)=O)C2(C)C)C(C)(C)C (some centres undefined) [BOCEPREVIR] )
### Response 5.46 µM
